# credit: ChEMBL document CHEMBL1138729

Procedure Text: Inhibitory activity against Cyclin-dependent kinase 1 (CDK1)
Readout Kind: pIC50
// pIC50: -log10(molar conc.)

Guide cases for pIC50, answers given:
>  <Query Smiles>
Nc1nc2ccc(C(=O)c3c(F)cccc3F)cn2c1C(=S)c1ccccc1

>  <Reported Result>
6.78

$$$$
>  <Query Smiles>
Nc1nc2ccc(C(=O)c3c(Cl)cccc3Cl)cn2c1C(=O)c1c(F)cc(C(=O)O)cc1F

>  <Reported Result>
6.48

$$$$
>  <Query Smiles>
COc1cc(F)c(C(=O)c2c(N)nc3ccc(C(=O)c4c(F)cccc4F)cn23)c(F)c1

>  <Reported Result>
6.88

$$$$
>  <Query Smiles>
Nc1nc2ccc(C(=O)c3c(F)cccc3F)cn2c1C(=O)c1c(F)cccc1F

>  <Reported Result>
7.24

$$$$

Fill in: pIC50 of `COc1ccccc1C(=O)c1c(N)nc2ccc(C(=O)c3c(F)cccc3F)cn12` is ___
6.32

I have this compound here, `N#C/C=C(/c1ccc2nc(N)c(C(=O)c3c(F)cccc3F)n2c1)c1c(F)cccc1F` , and I need its recorded pIC50.
7.28

Quick one: pIC50 of `Nc1nc2ccc(C(=O)c3c(F)cccc3Cl)cn2c1C(=O)c1c(F)cccc1F` ?
6.98

Query: pIC50; subject: `Nc1nc2ccc(C(=O)c3c(F)cccc3F)cn2c1C(=O)c1c(Cl)cccc1Cl`
6.68

Quick check: pIC50 of `Nc1nc2ccc(C(=O)c3c(F)cccc3F)cn2c1C(=S)c1c(F)cccc1F` ?
6.98

Look up pIC50: `Nc1nc2ccc(C(=O)c3c(F)cccc3F)cn2c1C(=O)c1c(F)cccc1Cl`
6.62
